experiment: Ratio of drug level in brain to plasma in Sprague-Dawley rat at 1 mg/kg, iv after 0.5 hr; type: ADME, organism-based; parameters: dose 1 mg/kg, route intravenous; conditions: read-out: BPR
Parameter: Kp at 0.5 h

1) C[S@@+]([O-])C[C@H]1[C@H]2CC[C@@]3(CC[C@H]4[C@@](C)(CCC[C@]4(C)C(=O)O)[C@@H]3C2)[C@@H]1O
0.021
2) COC(=O)[C@@]1(C)CCC[C@@]2(C)[C@@H]3C[C@@H]4CC[C@@]3(CC[C@@H]21)[C@H](O)[C@H]4C[S+](C)[O-] (some centres not stated)
2.2

Data origin: ChEMBL document CHEMBL1139827
